Values from the supplement of paper PMC11246515

protocol_text: total protein half-life in vivo (active degradation + dilution); higher = more stable protein
assay_conditions: E. coli NCM3722 delta-smpB; growth: N-lim chemostat; doubling time 6 h
measured_attribute: total protein half-life in vivo (h)

input_sequence	measured_attribute	unit_of_measurement	value
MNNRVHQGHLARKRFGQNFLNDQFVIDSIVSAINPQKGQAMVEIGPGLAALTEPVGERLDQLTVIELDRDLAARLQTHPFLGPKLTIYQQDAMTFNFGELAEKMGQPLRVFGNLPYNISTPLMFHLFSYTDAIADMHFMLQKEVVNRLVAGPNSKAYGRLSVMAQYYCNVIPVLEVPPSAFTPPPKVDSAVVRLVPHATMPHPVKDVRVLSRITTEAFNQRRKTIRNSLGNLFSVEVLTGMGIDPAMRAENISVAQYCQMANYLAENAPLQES	total protein half-life in vivo	h	5.39
MCGRFAQSQTREDYLALLAEDIERDIPYDPEPIGRYNVAPGTKVLLLSERDEHLHLDPVFWGYAPGWWDKPPLINARVETAATSRMFKPLWQHGRAICFADGWFEWKKEGDKKQPFFIYRADGQPIFMAAIGSTPFERGDEAEGFLIVTAAADQGLVDIHDRRPLVLSPEAAREWMRQEISGKEASEIAASGCVPANQFSWHPVSRAVGNVKNQGAELIQPV	total protein half-life in vivo	h	3.52
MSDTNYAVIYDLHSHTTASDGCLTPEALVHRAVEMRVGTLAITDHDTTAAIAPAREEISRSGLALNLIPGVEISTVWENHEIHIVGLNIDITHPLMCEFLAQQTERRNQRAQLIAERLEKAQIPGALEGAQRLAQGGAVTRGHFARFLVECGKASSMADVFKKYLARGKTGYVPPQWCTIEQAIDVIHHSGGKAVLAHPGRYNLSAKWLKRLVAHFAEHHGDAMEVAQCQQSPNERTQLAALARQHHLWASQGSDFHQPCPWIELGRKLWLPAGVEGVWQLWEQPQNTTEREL	total protein half-life in vivo	h	1.76
